- System: PBMCs
- procedureSummary: Cytokine release assay (IFN-γ, IL-13) on PBMCs from house dust mite allergic individuals
- Format: cell-based, human
- measurementSetup: number of responders, N = 55 house dust mite allergic individuals; positive = at least 100 pg/ml of cytokine
Where no end group is shown, it is not given here. [ ]: non-standard residue; d: D form. Abu = CC[C@H](N)C(=O)O
endpointName: Responders with IFN-g >100

[[record]]
seq = "RFGISNYSQIYPPNVNK [HDM100A]"
system = "PBMCs"
endpointname = "Responders with IFN-g >100"
valuereported = 10

[[record]]
seq = "NYBQIYPPNVNKIREA (NY[Abu]QIYPPNVNKIREA) [HDM101B, B=2-aminobutyric acid]"
system = "PBMCs"
endpointname = "Responders with IFN-g >100"
valuereported = 1

[[record]]
seq = "NAQRFGISNYBQI (NAQRFGISNY[Abu]QI) [HDM102B, B=2-aminobutyric acid]"
system = "PBMCs"
endpointname = "Responders with IFN-g >100"
valuereported = 15

[[record]]
seq = "NAQRFGISNYSQI [HDM102A]"
system = "PBMCs"
endpointname = "Responders with IFN-g >100"
valuereported = 14

[[record]]
seq = "NYSQIYPPNVNKIREA [HDM101A]"
system = "PBMCs"
endpointname = "Responders with IFN-g >100"
valuereported = 4

[[record]]
seq = "RFGISNYBQIYPPNVNK (RFGISNY[Abu]QIYPPNVNK) [HDM100B, B=2-aminobutyric acid]"
system = "PBMCs"
endpointname = "Responders with IFN-g >100"
valuereported = 6

[[record]]
seq = "NAQRFGISNYCQI [HDM102]"
system = "PBMCs"
endpointname = "Responders with IFN-g >100"
valuereported = 16

[[record]]
seq = "NYCQIYPPNVNKIREA [HDM101]"
system = "PBMCs"
endpointname = "Responders with IFN-g >100"
valuereported = 2

[[record]]
seq = "RFGISNYCQIYPPNVNK [HDM100]"
system = "PBMCs"
endpointname = "Responders with IFN-g >100"
valuereported = 6


* * *

In this section, each of the sequences is paired with its reported Percentage peak area ratio (% PAR), dimers formed.
- procedureSummary: Dimer formation of individual peptides and binary peptide mixtures, RP-HPLC
- Format: physicochemical
- measurementSetup: T = 72 h; Control matrix; individual peptide sample
endpointName: Percentage peak area ratio (% PAR), dimers formed

[[record]]
seq = "TAMKKIQDCYVENGLI (listed as Felis catus) [MLA12, derived from cat allergen Fel d1]"
valuereported = 0.46

[[record]]
seq = "KALPVVLENARILKNCV (listed as Felis catus) [MLA04, derived from cat allergen Fel d1]"
valuereported = 2.51

[[record]]
seq = "RILKNCVDAKMTEEDKE (listed as Felis catus) [MLA05, derived from cat allergen Fel d1]"
valuereported = 1.99

[[record]]
seq = "CPAVKRDVDLFLT (listed as Felis catus) [MLA01, derived from cat allergen Fel d1]"
valuereported = 43.81


* * *

- procedureSummary: Dimer formation of individual peptides and binary peptide mixtures, RP-HPLC
- Assay type: physicochemical
- measurementSetup: T = 1 week, 25° C./60% RH; Control matrix; individual peptide sample
endpointName: Percentage peak area ratio (% PAR), dimers formed

[[record]]
seq = "KALPVVLENARILKNCV (listed as Felis catus) [MLA04, derived from cat allergen Fel d1]"
valuereported = 4.76

[[record]]
seq = "RILKNCVDAKMTEEDKE (listed as Felis catus) [MLA05, derived from cat allergen Fel d1]"
valuereported = 1.65

[[record]]
seq = "TAMKKIQDCYVENGLI (listed as Felis catus) [MLA12, derived from cat allergen Fel d1]"
valuereported = 1.72

[[record]]
seq = "CPAVKRDVDLFLT (listed as Felis catus) [MLA01, derived from cat allergen Fel d1]"
valuereported = 66.81


Cited source: patent US8551493B2
